system_under_test: Butyrylcholinesterase (Rattus norvegicus, UniProt Q9JKC1)
Sequence (Q9JKC1 whole entry): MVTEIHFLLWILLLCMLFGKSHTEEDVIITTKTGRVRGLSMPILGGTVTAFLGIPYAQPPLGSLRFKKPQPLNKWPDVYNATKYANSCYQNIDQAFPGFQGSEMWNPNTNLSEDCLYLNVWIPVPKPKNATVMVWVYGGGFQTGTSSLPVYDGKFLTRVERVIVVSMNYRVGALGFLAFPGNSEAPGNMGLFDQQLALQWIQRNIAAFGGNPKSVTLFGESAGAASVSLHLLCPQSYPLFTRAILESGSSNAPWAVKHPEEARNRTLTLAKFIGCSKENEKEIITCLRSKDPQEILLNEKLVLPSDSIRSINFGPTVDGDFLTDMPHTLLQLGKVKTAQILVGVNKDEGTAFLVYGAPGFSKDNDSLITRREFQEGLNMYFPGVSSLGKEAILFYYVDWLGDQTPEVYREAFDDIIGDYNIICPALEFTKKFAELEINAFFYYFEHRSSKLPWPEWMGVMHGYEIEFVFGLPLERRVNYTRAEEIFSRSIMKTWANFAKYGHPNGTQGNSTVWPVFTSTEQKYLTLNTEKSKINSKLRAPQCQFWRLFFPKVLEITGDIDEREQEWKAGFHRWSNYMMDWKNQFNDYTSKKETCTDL
pIC50: −log10 of the molar value.
Cut-off 6 on pIC50, inclusive. At or above means Satisfied; below means Not satisfied.

[
  {
    "compound": "O=c1ccc2c([nH]1)CCC(NCCCCCNc1c3c(nc4cc(Cl)ccc14)CCCC3)C2 (centres undefined)",
    "answer_label": "Satisfied"
  },
  {
    "compound": "O=c1ccc2c([nH]1)CCC(NCCCNc1c3c(nc4cc(Cl)ccc14)CCCC3)C2 (centres undefined)",
    "answer_label": "Satisfied"
  },
  {
    "compound": "O=c1ccc2c([nH]1)CCC(NCCCCNc1c3c(nc4cc(Cl)ccc14)CCCC3)C2 (centres undefined)",
    "answer_label": "Satisfied"
  },
  {
    "compound": "O=c1ccc2c([nH]1)CCC(NCCCCCCCCCCNc1c3c(nc4cc(Cl)ccc14)CCCC3)C2 (centres undefined)",
    "answer_label": "Not satisfied"
  },
  {
    "compound": "O=c1ccc2c([nH]1)CCC(NCCCCCCNc1c3c(nc4cc(Cl)ccc14)CCCC3)C2 (centres undefined)",
    "answer_label": "Satisfied"
  },
  {
    "compound": "O=c1ccc2c([nH]1)CCC(NCCNc1c3c(nc4cc(Cl)ccc14)CCCC3)C2 (centres undefined)",
    "answer_label": "Satisfied"
  }
]
